B1: UBE2R2 (parent)
chain: DPQSGELPSERWNPTQNVRTILLS

Variants of: B1
assayRemarks: protein stability index of a GFP-peptide fusion (GPS, HEK-293T) (PSI 1-6); higher = more stable;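 also: lentivirally expressed fusions sorted by FACS into six bins by GFP to DsRed ratio, PSI derived from sequencing read proportions per bin multiplied by bin number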
conditionSummary: c terminus: a fixed tail appended
Assign class by protein stability index: not lower than 4 means 1.0; lower than 4 means 0.0.

Use these answered entries as a reference point.
Problem: Determine whether this variant has protein stability index no lower than 4: "T15R"
Result: 0.0

Problem: Quick check: does "T20I" have protein stability index greater than or equal to 4?
Result: 0.0

Problem: Reported protein stability index reaches at least 4 for "Q16V" ?
Result: 0.0

Problem: Please indicate if the recorded protein stability index for "L22R" meets or exceeds 4.
Result: 1.0

Problem: Is protein stability index at least 4? Consider "L23R"
Result: 1.0

Problem: Kindly determine if protein stability index recorded for "N17R" is above or exactly 4.
Result: 0.0

Problem: Test whether the variant "W12T" records protein stability index of 4 or higher.
Result: 1.0

Problem: // inclusive: protein stability index at least 4? input: "T15I"
Result: 0.0

Problem: Is protein stability index at least 4? Consider "D1K"
Result: 0.0

Problem: Dear colleague, could you confirm whether "S24A" has protein stability index at or above 4?
Result: 0.0

***
Problem: protein stability index >= 4 for "R19C" ?
Result: 0.0

Problem: Given "S4I" , state whether its protein stability index is at least 4.
Result: 0.0

Problem: Say whether "W12D" shows protein stability index of 4 or more.
Result: 1.0

Problem: Textbook exercise: given the entry "N17W" , state whether its protein stability index is greater than or equal to 4.
Result: 0.0

Problem: Is reported protein stability index greater than or equal to 4 here: "Q16G"
Result: 0.0

Problem: Determine whether this variant has protein stability index no lower than 4: "G5Q"
Result: 0.0

Problem: Given the entry "Q3M" , answer whether its protein stability index meets or surpasses 4.
Result: 0.0

Problem: Hello, I need to know if "Q3A" has measured protein stability index not below 4. Thanks!
Result: 0.0

Problem: Does the reported protein stability index for "N13F" fall at or above the 4 mark?
Result: 0.0

Problem: Determine whether this variant has protein stability index no lower than 4: "W12K"
Result: 1.0

Problem: State whether the measured protein stability index reaches 4, counting equality as reaching it, for "L23G"
Result: 0.0
